# PROTOCOL: Primary fluorescence-based thiol-reactive (MSTI) qHTS assay for identification of artifact compounds. (AID 1845221); note: nearly all actives have a fitted effect of over 65% in size
# TEST SETTINGS: MSTI thiol-reactivity probe, 1 h; series mostly up to 53.8 µM
Inconclusive results are not listed. Calls of active or inactive are those of the source. Calls come from the whole dose curve; as a rule, active = well fitted inhibition curve with a large enough effect; inconclusive = small, poorly fitted or top-dose-only effect; inactive = no such curve, though single readings can be large or run the other way.
# output must be one of active, inactive

FC(F)(F)c1cc(C(F)(F)F)c2ccc3nc(-c4nnco4)cn3c2n1
inactive
C=C1CC23CC1(O)CCC2C1=CC2OC(=O)C(C)(C2O)C1C3C(=O)O (configuration not stated)
inactive
Cc1nc2c(-c3cnc(N)nc3)nc(N3CCOCC3)nc2n1C(C)C
inactive
CN1C(=O)N[C@@H](Cc2c[nH]c3c(Cl)cccc23)C1=O
inactive
COc1ccccc1-n1c(SCC(=O)Nc2nc3ccc(C)cc3s2)nc2c(c1=O)SCC2
inactive

// return assay outcome for COC(=O)C1=C[C@@H](O)[C@@H](O)[C@H](O[C@@H]2O[C@H](COC(=O)/C=C/c3ccccc3)[C@@H](O)[C@H](O)[C@H]2O)C1
inactive

----------
# Test system: astro
# PROTOCOL: Drug repurposing screens with cells derived from glioblastoma tumor samples (AID 1345199); note: % is set by controls: 0 for no effect and ±100 for the full control effect; nearly all actives have a fitted effect of over 40% in size
# TEST SETTINGS: viability, ATP luminescence, 48 h; series mostly up to 45.9 µM
Results filed as inconclusive are left out. The source made the active and inactive calls. Calls come from the whole dose curve; as a rule, active = well fitted inhibition curve with a large enough effect; inconclusive = small, poorly fitted or top-dose-only effect; inactive = flat fitted curve, though single readings scatter.
READOUT LABEL: outcome

CC(=O)O[C@]1(C(C)=O)CC[C@H]2[C@@H]3CCC4=CC(=O)CC[C@]4(C)[C@@]3(F)[C@@H](O)C[C@@]21C
inactive
CO[C@@H]1[C@@H](O[C@@H]2O[C@H](C)[C@@H](O[C@H]3C[C@@](C)(O)[C@@H](O)[C@H](C)O3)[C@H](N(C)C)[C@H]2O)[C@@H](CC=O)C[C@@H](C)[C@@H](O[C@@H]2CC[C@H](N(C)C)[C@@H](C)O2)/C=C/C=C/C[C@@H](C)OC(=O)C[C@H]1O
inactive
CN(C)CC/C=C1/c2ccccc2CSc2ccccc21
inactive

----------
# Tested on: OV90
# PROTOCOL: Primary qHTS to identify gynecologic anti-cancer compounds using libraries of approved drugs and bioactive compounds (AID 1345084); note: % is set by controls: 0 for no effect and ±100 for the full control effect; nearly all actives have a fitted effect of over 55% in size
# TEST SETTINGS: Gynecologic cancer cell panel viability, ATPlite luminescence, 48 h; series mostly up to 57.5 µM
Inconclusive results are not listed. The source made the active and inactive calls. Calls come from the whole dose curve; as a rule, active = well fitted cell-killing curve with a large enough effect; inconclusive = small, poorly fitted or top-dose-only effect, or effect the other way; inactive = flat fitted curve, though single readings scatter.
READOUT LABEL: activity change, negative = cytotoxicity

O=C(O[C@@H]1O[C@H](CO)[C@@H](O)[C@H](O)[C@H]1O)c1c(O)cc(O)cc1/C=C/c1ccccc1
inactive
C/C(=C/CO)CC[C@@H]1[C@@]2(C)CCC[C@](C)(C(=O)O)C2CC[C@@]1(C)O (stereo not given in full)
inactive
CC1=CC[C@]2(C(=O)O[C@@H]3O[C@H](CO[C@@H]4O[C@H](CO)[C@@H](O[C@@H]5O[C@@H](C)[C@H](O)[C@@H](O)[C@H]5O)[C@H](O)[C@H]4O)[C@@H](O)[C@H](O)[C@H]3O)CC[C@]3(C)C(CCC4[C@@]5(C)C[C@@H](O)[C@H](O)[C@@](C)(CO)C5CC[C@]43C)C2C1C (stereo not given in full)
6.64% [at 11.6 µM] (inactive)
CC1(CO)CC[C@]2(C(=O)O[C@@H]3O[C@H](CO)[C@@H](O)[C@H](O)[C@H]3O)CC[C@]3(C)C(=CCC4[C@@]5(C)C[C@H](O)[C@H](O[C@@H]6OC[C@@H](O)[C@H](O)[C@H]6O)[C@@](C)(CO)C5CC[C@]43C)C2C1 (stereo not given in full)
9.02% [at 11.6 µM] (inactive)
COCCCNCC1COc2ccccc2O1 (stereo not given)
inactive

// fetch activity change, negative = cytotoxicity; item: C=C1[C@H]2[C@H](O[C@@H]3O[C@H](COC(=O)/C=C/c4cc(OC)c(O)c(OC)c4)[C@@H](O)[C@H](O)[C@H]3O)OC=C(C(=O)O)[C@H]2C[C@@H]1O ; system: OV90
inactive

// fetch activity change, negative = cytotoxicity; item: CN1C(=O)N[C@@H](Cc2c[nH]c3c(Cl)cccc23)C1=O ; system: OV90
inactive

// fetch activity change, negative = cytotoxicity; item: CC(=O)c1c(C)cc(O)cc1O[C@@H]1O[C@H](CO)[C@@H](O)[C@H](O)[C@H]1O ; system: OV90
inactive

// fetch activity change, negative = cytotoxicity; item: CC(C)c1nc(N(C)S(C)(=O)=O)nc(-c2ccc(F)cc2)c1/C=C/[C@@H](O)C[C@@H](O)CC(=O)O ; system: OV90
inactive

// fetch activity change, negative = cytotoxicity; item: COC1C2=C(COC2=O)C2(C)CCCC(C)(CO)C2C1OC(=O)c1ccccc1 (stereo not given) ; system: OV90
inactive

// fetch activity change, negative = cytotoxicity; item: C[C@@H]1O[C@@H](O[C@H]2[C@H](OC(C#N)c3ccc(O)cc3)O[C@H](CO)[C@@H](O)[C@@H]2O)[C@H](O)[C@H](O)[C@H]1O (stereo not given in full) ; system: OV90
inactive

----------
# Tested on: CP329
# PROTOCOL: qHTS profiling for inhibitors of Plasmodium falciparum proliferation (AID 504749); note: nearly all actives have a fitted effect of over 60% in size
# TEST SETTINGS: P. falciparum in erythrocytes, SYBR Green DNA, 72 h; series mostly up to 28.7 µM
Results filed as inconclusive are left out. The source made the active and inactive calls. Calls follow the shape of the dose curve; as a rule, active = well fitted inhibition curve with a large enough effect; inconclusive = small, poorly fitted or top-dose-only effect; inactive = flat fitted curve, though single readings scatter.
# output must be one of class 1 for active, class 0 for inactive

O=C(O)c1cc(=O)c2c3nc4ccccc4oc-3cc(=O)c2[nH]1
class 0

// return assay outcome for C=CCSSSCC=C
class 0

// return assay outcome for COc1ccc2c3c1O[C@H]1C[C@@H](O)C=C[C@@]31CCN(C)C2
class 0

// return assay outcome for Cc1ccccc1
class 0

// return assay outcome for O=C1C(=O)c2ncccc2-c2cccnc21
class 1

// return assay outcome for CC[C@@]1(O)C(=O)OCc2c1cc1n(c2=O)Cc2cc3c([N+](=O)[O-])cccc3nc2-1
class 1

// return assay outcome for O=S(=O)(O)O
class 0

// return assay outcome for Cc1cc(C(=O)NNCc2ccccc2)no1
class 0

// return assay outcome for CC1=C(/C=C/C(C)=C/C=C/C(C)=C/C=C/C=C(C)/C=C/C=C(C)/C=C/C2=C(C)CCCC2(C)C)C(C)(C)CCC1
class 0

// return assay outcome for CC(Cc1ccc(O)c(O)c1)C(C)Cc1ccc(O)c(O)c1 (configuration not stated)
class 0

// return assay outcome for CCOC(C)=O
class 0

// return assay outcome for COC(=O)CCC(=O)CN
class 0

// return assay outcome for IC(I)I
class 0

// return assay outcome for C[C@]12O[C@H](C[C@]1(O)CO)n1c3ccccc3c3c4c(c5c6ccccc6n2c5c31)CNC4=O
class 1

// return assay outcome for Nc1c(Br)cc(Br)cc1CNC1CCC(O)CC1 (configuration not stated)
class 0

// return assay outcome for COCC(=O)Nc1cc(Sc2ccccc2)ccc1N=C(NC(=O)OC)NC(=O)OC
class 0

// return assay outcome for COC(=O)[C@H]1[C@H]2C[C@@H]3c4[nH]c5ccccc5c4CCN3C[C@H]2C[C@@H](OC(=O)c2cc(OC)c(OC)c(OC)c2)[C@@H]1OC
class 1

// return assay outcome for CC(C)N=c1cc2n(-c3ccc(Cl)cc3)c3ccccc3nc-2cc1Nc1ccc(Cl)cc1
class 0

// return assay outcome for Cc1c(C)c2c(c(C)c1O)CC[C@@](C)(CCC[C@H](C)CCC[C@H](C)CCCC(C)C)O2
class 0

----------
# PROTOCOL: Primary fluorescence-based thiol-reactive (MSTI) qHTS assay for identification of artifact compounds. (AID 1845221); note: nearly all actives have a fitted effect of over 65% in size
# TEST SETTINGS: MSTI thiol-reactivity probe, 1 h; series mostly up to 53.8 µM
Records with an inconclusive call do not appear. Calls of active or inactive are those of the source. Calls come from the whole dose curve; as a rule, active = well fitted inhibition curve with a large enough effect; inconclusive = small, poorly fitted or top-dose-only effect; inactive = no such curve, though single readings can be large or run the other way.
# output must be one of Yes (active), No (inactive)

C=CC(C)(C)O[C@@H]1O[C@H](CO[C@@H]2OC[C@](O)(CO)[C@H]2O)[C@@H](O)[C@H](O)[C@H]1O
No

// return assay outcome for CC(=O)O[C@@H]1C[C@@]23C[C@@]24CC[C@H](OC2OC[C@@H](O)[C@H](O)[C@H]2O)C(C)(C)[C@@H]4CC[C@H]3[C@]2(C)CC3OC4(C[C@@H](C)C3[C@@]12C)OCC1(C)OC14 (stereo partly specified)
No

// return assay outcome for COc1ccc(C(OC2OC(CO)C(O)C(O)C2O)C(C)O)cc1 (stereo unspecified)
Yes

// return assay outcome for C[C@@H]1CC[C@H]2C(C)(C)[C@H](O)[C@H](O)C[C@]2(C)[C@@]12Cc1c(O)cc3c(c1O2)CNC3=O
No

// return assay outcome for C=C1C[C@@]23CC[C@@H]4[C@](C)(C(=O)O)CCC[C@@]4(C)C2=CC[C@H]1C3
No

// return assay outcome for C=CC1C(O[C@@H]2O[C@H](CO)[C@@H](O)[C@H](O)[C@H]2O)OC=C(C(=O)OC)C1Cc1nccc2c1[nH]c1ccccc12 (stereo partly specified)
No

// return assay outcome for O=C(CCCCc1ccc2ccccc2c1)C(F)(F)F
No

// return assay outcome for CCCOc1ccn2c(C(C)=O)cc(-c3ccccc3S(C)(=O)=O)c2c1
No

// return assay outcome for Nc1ccn([C@@H]2C(F)=C(CO)[C@@H](O)[C@H]2O)c(=O)n1
No

// return assay outcome for O=C(c1ccc(F)cc1)C1CCN(CCn2c(=O)nc3n(c2=O)CCCC3)CC1
No
